target: human BRD4 first bromodomain (BDI_K57-E168) (Homo sapiens (Human)); assay: TR-FRET bromodomain binding assay, BRD4 first bromodomain
MEASUREMENT_NAME: Ki (nM)

Answered cases to consult:
| COMPOUND | MEASUREMENT_NAME | READING_UNIT | REPORTED |
| --- | --- | --- | --- |
| CCS(=O)(=O)c1ccc(O[C@H]2CC[C@@H](OC)CC2)c(-c2cn(C)c(=O)c3[nH]ccc23)c1 | Ki | nM | 1.9 |
| CCS(=O)(=O)Nc1ccc(OCC2CC2)c(-c2cn(C)c(=O)c3[nH]ccc23)c1 | Ki | nM | 2.7 |
| CCS(=O)(=O)c1ccc(OCC2CC2(F)F)c(-c2cn(C)c(=O)c3[nH]c(C(=O)NCC(F)(F)F)cc23)c1 (centres unmarked) | Ki | nM | 8.5 |
| Cn1cc(-c2cc(S(=O)(=O)N3CCCC3)ccc2OCC2CC2(F)F)c2cc[nH]c2c1=O (centres unmarked) | Ki | nM | 2.4 |
| Cn1cc(-c2cc(NS(=O)(=O)CCF)ccc2Oc2ccc(F)cc2F)c2cc[nH]c2c1=O | Ki | nM | 53.1 |
| Cn1cc(-c2cc(S(=O)(=O)C(F)(F)F)ccc2OCC2CC2)c2cc[nH]c2c1=O | Ki | nM | 11.5 |
| CN(C)Cc1cc2c(-c3cc(S(C)(=O)=O)ccc3Oc3ccc(F)cc3F)cn(C)c(=O)c2[nH]1 | Ki | nM | 31.4 |
| Cn1cc(-c2cc(S(C)(=O)=O)ccc2OCC2(C)CC2)c2cc[nH]c2c1=O | Ki | nM | 3.7 |
| Cn1cc(-c2cc(S(=O)(=O)N3CCCC3)ccc2OCC2CC2)c2cc[nH]c2c1=O | Ki | nM | 5.8 |

I: Cn1cc(-c2cc(-c3cccnc3)ccc2OCC2CC2)c2cc[nH]c2c1=O
II: Cn1cc(-c2cc(S(N)(=O)=O)cnc2NCC2CC2)c2cc[nH]c2c1=O
III: CCNC(=O)c1cc2c(-c3cc(NS(C)(=O)=O)ccc3Oc3ccccc3)cn(C)c(=O)c2[nH]1
IV: Cn1cc(-c2cc(NS(C)(=O)=O)ccc2Oc2ccccc2)c2cc(C(N)=O)[nH]c2c1=O
input: Highest Ki first, then in falling order down to the smallest. Labels, ranked as asked.
output: I, II, III, IV
